Molecular target: purified human Factor XIa (Homo sapiens (Human))
Sequence (P03951 388-625): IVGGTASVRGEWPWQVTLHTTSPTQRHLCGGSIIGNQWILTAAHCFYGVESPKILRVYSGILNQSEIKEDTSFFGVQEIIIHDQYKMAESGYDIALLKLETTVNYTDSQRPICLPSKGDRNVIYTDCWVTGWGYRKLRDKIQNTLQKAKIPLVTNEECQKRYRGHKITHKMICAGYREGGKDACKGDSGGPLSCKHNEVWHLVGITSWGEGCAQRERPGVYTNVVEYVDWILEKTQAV
Sequence (P03951 19-387 partner): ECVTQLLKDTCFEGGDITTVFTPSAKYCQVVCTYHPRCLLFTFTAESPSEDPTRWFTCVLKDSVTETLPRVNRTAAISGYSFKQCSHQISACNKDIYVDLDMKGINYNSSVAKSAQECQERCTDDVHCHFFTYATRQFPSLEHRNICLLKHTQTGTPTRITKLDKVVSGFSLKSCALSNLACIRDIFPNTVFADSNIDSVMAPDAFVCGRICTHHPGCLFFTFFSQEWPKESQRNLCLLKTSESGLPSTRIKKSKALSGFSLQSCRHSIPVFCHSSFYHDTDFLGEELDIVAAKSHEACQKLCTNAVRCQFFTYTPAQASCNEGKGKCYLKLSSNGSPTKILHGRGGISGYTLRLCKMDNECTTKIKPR
pIC50: −log10 of the molar value.
Lab note: anything with pIC50 at or over 8 counts as 1; the rest go in 0.

Assess whether reported pIC50 for O=C(O)c1ccc(NC(=O)C(CC2CC2)c2ccc(-c3cc(Cl)ccc3-c3cnco3)c[n+]2[O-])cc1 (single isomer, unassigned) sits at 8 or higher.
1

Assess whether reported pIC50 for O=C(O)c1ccc(NC(=O)C(CC2CC2)c2ccc(-c3cc(Cl)ccc3-n3cnnn3)c[n+]2[O-])cc1F (single isomer, unassigned) sits at 8 or higher.
0

Assess whether reported pIC50 for O=C(O)c1ccc(NC(=O)C(CC2CC2)c2ccc(-c3cc(Cl)ccc3-n3cnnn3)c[n+]2[O-])c(Cl)c1 (single isomer, unassigned) [Example 31] sits at 8 or higher.
0

Assess whether reported pIC50 for N#Cc1ccc(Cl)c(F)c1-c1ccc(C(CC2CC2)C(=O)Nc2ccc(C(=O)O)cc2)[n+]([O-])c1 (single isomer, unassigned) [Example 30] sits at 8 or higher.
1

Assess whether reported pIC50 for `O=C(O)c1ccc(NC(=O)[C@H](Cc2ccccc2)c2ccc(-c3cc(Cl)ccc3-c3cnco3)c[n+]2[O-])cc1` sits at 8 or higher.
1

###

Target: purified Human plasma kallikrein (Homo sapiens (Human), UniProt P03952)
Sequence (P03952 391-638): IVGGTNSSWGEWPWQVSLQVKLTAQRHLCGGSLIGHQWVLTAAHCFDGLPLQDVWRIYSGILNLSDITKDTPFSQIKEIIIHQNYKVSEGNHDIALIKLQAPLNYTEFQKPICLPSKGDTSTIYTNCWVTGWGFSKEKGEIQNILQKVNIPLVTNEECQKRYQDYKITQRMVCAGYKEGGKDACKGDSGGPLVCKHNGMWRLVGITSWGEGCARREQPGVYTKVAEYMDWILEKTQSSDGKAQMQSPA
Sequence (P03952 20-390 partner): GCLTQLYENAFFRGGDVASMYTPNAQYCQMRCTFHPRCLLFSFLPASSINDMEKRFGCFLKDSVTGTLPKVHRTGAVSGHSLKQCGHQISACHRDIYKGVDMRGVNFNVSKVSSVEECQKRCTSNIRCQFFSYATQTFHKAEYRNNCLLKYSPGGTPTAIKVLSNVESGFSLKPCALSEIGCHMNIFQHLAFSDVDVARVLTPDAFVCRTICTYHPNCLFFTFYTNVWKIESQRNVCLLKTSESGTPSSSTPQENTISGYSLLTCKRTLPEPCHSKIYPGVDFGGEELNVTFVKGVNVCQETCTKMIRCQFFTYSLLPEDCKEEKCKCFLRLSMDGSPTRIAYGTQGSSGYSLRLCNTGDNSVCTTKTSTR
Assay: Kallikrein Assay
Settings: purified Human plasma kallikrein 0.5 nM, substrate Acetyl-K-P-R-AFC, pH 7.4; read-out: P. KLK IC50
For each of the compounds below, state its IC50.
Enter your answer as a number in nM; do not include the unit.

Supply IC50 measured with purified Human plasma kallikrein (Homo sapiens (Human), UniProt P03952) for COc1cc(C(Cc2ccccc2)C(=O)Nc2ccc(C(=O)O)cc2)[n+]([O-])cc1-c1cc(Cl)ccc1C#N (single isomer, unassigned) [Example 24] .
0.7

Supply IC50 measured with purified Human plasma kallikrein (Homo sapiens (Human), UniProt P03952) for O=C(Nc1ccc2cn[nH]c2c1)C(Cc1ccccc1)c1ccc(-c2cc(Cl)ccc2-n2cnnn2)c[n+]1[O-] (racemic) [Example 6] .
1.9

Supply IC50 measured with purified Human plasma kallikrein (Homo sapiens (Human), UniProt P03952) for Cc1cc(C(Cc2ccccc2)C(=O)Nc2ccc(C(=O)O)cc2)[n+]([O-])cc1-c1c(F)ccc(Cl)c1F (stereo not shown) [Example 25] .
42.3

Supply IC50 measured with purified Human plasma kallikrein (Homo sapiens (Human), UniProt P03952) for COC(=O)NC12CCC(NC(=O)C(Cc3ccccc3)c3ccc(-c4cc(Cl)ccc4-n4cnnn4)c[n+]3[O-])(CC1)CC2 (single isomer, unassigned) [Example 19] .
9.2

Supply IC50 measured with purified Human plasma kallikrein (Homo sapiens (Human), UniProt P03952) for O=C(O)c1ccc(NC(=O)C(CC2CC2)c2ccc(-c3cc(Cl)ccc3-n3ccnn3)c[n+]2[O-])cc1 (single isomer, unassigned) [Example 54] .
678

Supply IC50 measured with purified Human plasma kallikrein (Homo sapiens (Human), UniProt P03952) for Cc1cc(NC(=O)C(CC2CC2)c2ccc(-c3cc(Cl)ccc3-n3cnnn3)c[n+]2[O-])ccc1C(=O)O (single isomer, unassigned) [Example 48] .
83.1

Supply IC50 measured with purified Human plasma kallikrein (Homo sapiens (Human), UniProt P03952) for N#Cc1ccc(Cl)c(F)c1-c1ccc(C(CC2CC2)C(=O)Nc2ccc(C(=O)O)cc2)[n+]([O-])c1 (single isomer, unassigned) [Example 30] .
80.4

Supply IC50 measured with purified Human plasma kallikrein (Homo sapiens (Human), UniProt P03952) for O=C(O)c1ccc(NC(=O)C(CC2CC2)c2ccc(-c3cc(Cl)ccc3-n3cc(C(F)F)nn3)c[n+]2[O-])cc1 (single isomer, unassigned) [Example 52] .
85.6

Supply IC50 measured with purified Human plasma kallikrein (Homo sapiens (Human), UniProt P03952) for O=C(O)c1ccc(NC(=O)[C@@H](CC2CC2)c2ccc(-c3cc(Cl)ccc3-n3cnnn3)c[n+]2[O-])cc1 [Example 28] .
5820

Supply IC50 measured with purified Human plasma kallikrein (Homo sapiens (Human), UniProt P03952) for O=C(O)c1ccc(NC(=O)[C@H](Cc2ccccc2)c2ccc(-c3cc(Cl)ccc3-n3cnnn3)c[n+]2[O-])cc1 [Example 2] .
1.2

Supply IC50 measured with purified Human plasma kallikrein (Homo sapiens (Human), UniProt P03952) for O=C(O)c1ccc(NC(=O)C(CC2CC2)c2ccc(-c3cc(Cl)ccc3OC(F)(F)F)c[n+]2[O-])cc1 (single isomer, unassigned) [Example 39] .
830

Supply IC50 measured with purified Human plasma kallikrein (Homo sapiens (Human), UniProt P03952) for O=C(NC12CCC(C(=O)O)(CC1)CC2)C(Cc1ccccc1)c1ccc(-c2c(F)ccc(Cl)c2F)c[n+]1[O-] (single isomer, unassigned) [Example 15] .
45

Supply IC50 measured with purified Human plasma kallikrein (Homo sapiens (Human), UniProt P03952) for O=C(O)c1ccc(NC(=O)C(CC2CC2)c2ccc(-c3cc(Cl)ccc3-n3cnnn3)c[n+]2[O-])c(Cl)c1 (single isomer, unassigned) [Example 32] .
692

Supply IC50 measured with purified Human plasma kallikrein (Homo sapiens (Human), UniProt P03952) for O=C(O)c1ccc(NC(=O)[C@H](CC2CC2)c2ccc(-c3cc(Cl)ccc3-n3cnnn3)c[n+]2[O-])cc1 [Example 27] .
23.8

Supply IC50 measured with purified Human plasma kallikrein (Homo sapiens (Human), UniProt P03952) for NCc1ccc(Cl)cc1-c1ccc(C(CC2CC2)C(=O)Nc2ccc(C(=O)O)cc2)[n+]([O-])c1 (racemic) [Example 40] .
1880

Supply IC50 measured with purified Human plasma kallikrein (Homo sapiens (Human), UniProt P03952) for O=C(NC12CCC(C(=O)O)(CC1)CC2)C(Cc1ccccc1)c1ccc(-c2cc(Cl)ccc2-n2cnnn2)c[n+]1[O-] (single isomer, unassigned) [Example 17] .
144

Supply IC50 measured with purified Human plasma kallikrein (Homo sapiens (Human), UniProt P03952) for O=C(O)c1ccc(NC(=O)[C@@H](Cc2ccccc2)c2ccc(-c3cc(Cl)ccc3-n3cnnn3)c[n+]2[O-])cc1 [Example 1] .
83.1

Supply IC50 measured with purified Human plasma kallikrein (Homo sapiens (Human), UniProt P03952) for O=C(Cc1ccc(-c2cc(Cl)ccc2-n2cnnn2)c[n+]1[O-])Nc1ccc(C(=O)O)cc1 [Example 14] .
1350

Supply IC50 measured with purified Human plasma kallikrein (Homo sapiens (Human), UniProt P03952) for Cc1cc(C(=O)O)ccc1NC(=O)C(CC1CC1)c1ccc(-c2cc(Cl)ccc2-n2cnnn2)c[n+]1[O-] (single isomer, unassigned) [Example 47] .
2350

Supply IC50 measured with purified Human plasma kallikrein (Homo sapiens (Human), UniProt P03952) for COc1cc(C(Cc2ccccc2)C(=O)Nc2ccc(C(=O)O)cc2)[n+]([O-])cc1-c1cc(Cl)ccc1C#N (single isomer, unassigned) [Example 23] .
24.6

Supply IC50 measured with purified Human plasma kallikrein (Homo sapiens (Human), UniProt P03952) for O=C(O)c1ccc(NC(=O)[C@H](Cc2ccc(F)cc2)c2ccc(-c3cc(Cl)ccc3-n3cnnn3)c[n+]2[O-])cc1 [Example 8] .
3.4

Supply IC50 measured with purified Human plasma kallikrein (Homo sapiens (Human), UniProt P03952) for O=C(Nc1ccc2cn[nH]c2c1)C(Cc1ccccc1)c1ccc(-c2c(F)ccc(Cl)c2F)c[n+]1[O-] (racemic) [Example 5] .
91.4
